# assay text: qHTS of pediatric cancer cell lines to identify multiple opportunities for drug repurposing: Confirmatory screen for MG 63 (6-TG R) cells (AID 1347119); also: nearly all actives have a fitted effect of over 55% in size; also: potency is read from the fitted curve at half-maximal effect
# test settings: MG-63 (6-TG resistant) osteosarcoma viability; series mostly up to 45.9 µM
# Procedure: Drug repurposing or repositioning has been offered as a strategy for drug development in oncology programs. […] [1] Shen, M et al. Quantitative high-throughput phenotypic screening of pediatric cancer cell lines identifies multiple opportunities for drug repurposing. […] Cells were assayed in growth media at a density of 500-1,000 cells/well. […] After a 15 min incubation at room temperature, samples were analyzed for luminescence intensity using a ViewLux High-throughput CCD imager equipped with clear filters.
Records with an inconclusive call do not appear. Activity calls are given as the source filed them. Calls follow the shape of the dose curve; as a rule, active = well fitted cell-killing curve with a large enough effect; inconclusive = small, poorly fitted or top-dose-only effect, or effect the other way; inactive = no such curve, though single readings can be large or run the other way.
assay metric: Potency

Examples with answers:
structure smiles: OCCn1cc(-c2ccc3c(c2)CCC3=NO)c(-c2ccncc2)n1
assay metric: Potency
measured value: inactive
//
structure smiles: CCC[C@H](N[C@@H](C)C(=O)N1[C@@H]2CCCC[C@H]2C[C@H]1C(=O)O)C(=O)OCC
assay metric: Potency
measured value: inactive
//
structure smiles: COc1cc(CNC(=O)CCCCC=CC(C)C)ccc1O
assay metric: Potency
measured value: inactive
//
structure smiles: CN(C)CCN(C)C(=O)c1ccc(NC(=O)Nc2ccc(-c3nc(N4CCOCC4)c4ccn(CC(F)(F)F)c4n3)cc2)cc1
assay metric: Potency
measured value: 329 nM (active)

With those in mind, consider the next molecule.
Please report Potency for the following molecule: `COc1ccc2c(c1)c(C1=C(c3c[nH]c4ccccc34)C(=O)NC1=O)cn2CCCN(C)C`
inactive

* * *

# System: TAB113
# assay text: qHTS profiling for inhibitors of Plasmodium falciparum proliferation (AID 504749); also: nearly all actives have a fitted effect of over 60% in size
# test settings: P. falciparum in erythrocytes, SYBR Green DNA, 72 h; series mostly up to 28.7 µM
Results filed as inconclusive are left out. Active and inactive are the calls of the source. The call rests on the fitted dose curve; in most records, active means well fitted inhibition curve with a large enough effect; inconclusive means small, poorly fitted or top-dose-only effect; inactive means flat fitted curve, though single readings scatter.
Answer with one of the outcomes given here: t = active, f = inactive

compound: CC(C)CN(C[C@@H](O)[C@H](Cc1ccccc1)NC(=O)O[C@H]1CO[C@H]2OCC[C@H]21)S(=O)(=O)c1ccc(N)cc1
assigned label: f
--
compound: N#CC(c1ccc(Cl)cc1)c1c(Cl)cc(-n2ncc(=O)[nH]c2=O)cc1Cl (stereo not given)
assigned label: f

Please state the recorded outcome for this compound: COc1ccnc(CS(=O)c2nc3ccc(OC(F)F)cc3[nH]2)c1OC (stereo not given)
f

What did this assay record as the result for `COc1c(C)c2c(c(O)c1CC=C(C)CCC(=O)OCCN1CCOCC1)C(=O)OC2` ?
t

# lookup: test call for `O=C(O)c1nc(=O)[nH]c(=O)[nH]1`
f

* * *

# assay text: Quantitative High-Throughput drug screen in 47 multiple myeloma cell lines against the NCATS MIPE library collection: Karpas25_ECACC cell viability assay (AID 1918968; also: nearly all actives have a fitted effect of over 35% in size)
# test settings: Karpas25 myeloma viability, CellTiter-Glo ATP, 48 h; series mostly up to 45.8 µM
Inconclusive results are not listed. The source made the active and inactive calls. Calls come from the whole dose curve; as a rule, active = well fitted cell-killing curve with a large enough effect; inconclusive = small, poorly fitted or top-dose-only effect, or effect the other way; inactive = no such curve, though single readings can be large or run the other way.
Choose the fitting class; nothing outside 1 (active), 0 (inactive) is accepted.

For orientation, consider the following solved cases.
structure smiles: NC(=O)c1noc([C@H](CCCC2CCCCC2)CC(=O)NO)n1
assigned label: 1
--
structure smiles: CCCCC(C)(C)[C@H](O)C=C[C@H]1[C@H](O)CC(=O)[C@H]1CC=CCCCC(=O)O
assigned label: 1
--
structure smiles: NC(=O)c1ccc(N(C(N)=O)c2c(F)cccc2F)nc1-c1ccc(F)cc1F
assigned label: 1
--
structure smiles: CC[C@H](C)C(=O)O[C@H]1C[C@H](O)C=C2C=C[C@H](C)[C@H](CC[C@@H](O)C[C@@H](O)CC(=O)O)[C@H]21
assigned label: 0

Lab note: next compound to report on.
Look up the recorded call for `NC(=O)c1ncn([C@@H]2O[C@H](CO)[C@@H](O)[C@@H]2O)n1` in this test.
0

* * *

# assay text: Quantitative High-Throughput drug screen in 47 multiple myeloma cell lines against the NCATS MIPE library collection: OPM1_PLB cell viability assay (AID 1918989); also: nearly all actives have a fitted effect of over 40% in size
# test settings: CellTiter-Glo, 48 h; series mostly up to 45.8 µM
Records with an inconclusive call do not appear. Calls of active or inactive are those of the source. Calls follow the shape of the dose curve; as a rule, active = well fitted cell-killing curve with a large enough effect; inconclusive = small, poorly fitted or top-dose-only effect, or effect the other way; inactive = no such curve, though single readings can be large or run the other way.
Form entry, call: pick from YES for active, NO for inactive

Check out these entries, answers already filled in.
structure smiles: O=S(=O)(NCCNCC=Cc1ccc(Br)cc1)c1cccc2cnccc12
assigned label: YES

structure smiles: Cc1cccc(Nc2nc(N[C@@H]3CCCC[C@H]3N)ncc2C(N)=O)c1
assigned label: YES

structure smiles: O=[N+]([O-])c1ccc(Nc2ccccc2-c2ccccc2)c2nonc12
assigned label: YES

structure smiles: COC(=O)N1CCN(Cc2cccc(NC(=O)Nc3ccc(C)nc3)c2F)CC1
assigned label: NO

structure smiles: c1ccc(-c2oc3ncnc(NC[C@@H]4CCCO4)c3c2-c2ccccc2)cc1
assigned label: YES

structure smiles: CCNC(=O)c1noc(-c2cc(C(C)C)c(O)cc2O)c1-c1ccc(CN2CCOCC2)cc1
assigned label: YES

structure smiles: N#CC(=C1Nc2ccccc2S1)c1ccnc(OCc2ccc(CN3CCOCC3)cc2)n1
assigned label: YES

structure smiles: COc1c(C)c2c(c(O)c1CC=C(C)CCC(=O)O)C(=O)OC2
assigned label: YES

structure smiles: COc1ccc2ccc(=O)oc2c1CC=C(C)C
assigned label: NO

Next molecule, please.
Record request — test call for `COc1ccc(CCN(C)CCCOc2ccc(S(=O)(=O)c3[nH]c4ccccc4c3C(C)C)cc2)cc1OC`
YES

* * *

# Tested on: NIH3T3
# assay text: Cytotoxic Profiling of Annotated Libraries Using Quantitative High-Throughput Screening (AID 1296008); also: % is scaled to controls: 0 for no effect and ±100 for the full control effect; nearly all actives have a fitted effect of over 60% in size
# test settings: Five cell lines viability, CellTiter-Glo ATP luminescence, 48-72 h; hits give low values
Results filed as inconclusive are left out.
Note to self: use t only for max response readings below -20%; a reading exactly at -20% still gets f.

Use these answered entries as a reference point.
structure smiles: CCCCOCCOc1nc(-c2ccc(C(=O)O)c(F)c2)sc1C
assigned label: t
//
structure smiles: CCN(CCO)CCCOc1ccc2c(Nc3cc(CC(=O)Nc4cccc(F)c4)[nH]n3)ncnc2c1
assigned label: t
//
structure smiles: COc1ccc2cc1Oc1ccc(cc1)C[C@H]1c3cc(c(OC)cc3CCN1C)Oc1c(OC)c(OC)cc3c1[C@H](C2)N(C)CC3
assigned label: t
//
structure smiles: CCC[C@H](N[C@@H](C)C(=O)N1[C@@H]2CCCC[C@H]2C[C@H]1C(=O)O)C(=O)OCC
assigned label: f

Consider the record given below.
Does `O=C1NC(=O)C(c2cnc3ccccn23)=C1c1cn2c3c(cccc13)CN(C(=O)N1CCOCC1)CC2` have max response strictly under -20%?
t

* * *

# assay text: Quantitative High-Throughput drug screen in 47 multiple myeloma cell lines against the NCATS MIPE library collection: L363_DSMZ cell viability assay (AID 1918984); also: nearly all actives have a fitted effect of over 40% in size; also: potency is read from the fitted curve at half-maximal effect
# test settings: L363 myeloma viability, CellTiter-Glo ATP luminescence, 48 h
# From the text: PI: Beverly A. Mock Ph.D. Laboratory of Cancer Biology and Genetics, Center for Cancer Research, National Cancer Institute, National Institute of Health, Bethesda, Maryland […] 5; Detector; 425V; Luminescence; Viewlux PerkinElmer. […] 1. […] Briefly, the corresponding myeloma cell lines were screened in 1,536-well plates with 500 cells, 5-uL per well for inhibition of cell viability (assessed by measuring ATP levels with CellTiterGlo). […]
Results filed as inconclusive are left out. The source made the active and inactive calls. Calls follow the shape of the dose curve; as a rule, active = well fitted cell-killing curve with a large enough effect; inconclusive = small, poorly fitted or top-dose-only effect, or effect the other way; inactive = no such curve, though single readings can be large or run the other way.
assay metric: Potency

Solved entries:
compound: COc1ccc(-c2nc3ccc(C4=NNC(=O)CC4C)cc3[nH]2)cc1 (stereo unspecified)
Potency: inactive
//
compound: CC(=O)OCC(=O)[C@@]12OC(C)(C)O[C@H]1C[C@H]1[C@@H]3C[C@H](F)C4=CC(=O)C=C[C@]4(C)[C@@]3(F)[C@@H](O)C[C@@]12C
Potency: inactive
//
compound: C=C1c2cccc(O)c2C(O)=C2C(=O)[C@@]3(O)C(O)=C(C(N)=O)C(=O)[C@@H](N(C)C)[C@@H]3[C@@H](O)[C@H]12
Potency: inactive
//
compound: Cc1cc(-c2ncc(CC(=O)Nc3ccc(-c4cnccn4)cn3)cc2C)ccn1
Potency: 14.8 µM (active)
//
compound: NC(=O)c1noc([C@H](CCCC2CCCCC2)CC(=O)NO)n1
Potency: inactive

Return reported Potency. Input compound: `CN1CC(=O)NC1=NC(=O)Nc1cccc(Cl)c1`
2.96 µM (active)

// fetch Potency given entry `CCCCC(F)(F)[C@@]1(O)CC[C@H]2[C@H](CC(=O)[C@@H]2CCCCCCC(=O)O)O1`
inactive

Write down Potency measured for item `C=CCc1cccc(C=NNC(=O)CN2CCN(Cc3ccccc3)CC2)c1O`
6.62 µM (active)

Give a short answer stating reported Potency for `O=C1NC(=O)C(c2cnc3ccccn23)=C1c1cn2c3c(cccc13)CN(C(=O)N1CCOCC1)CC2` .
0.0093 µM (active)

Provide one value: measured Potency of `NC[C@H]1O[C@H](O[C@@H]2[C@@H](O)[C@@H](O[C@H]3O[C@H](CO)[C@@H](O)[C@H](N)[C@@H]3O)[C@H](N)C[C@@H]2N)[C@H](O)[C@@H](O)[C@H]1O`
inactive

In one line, give reported Potency of the entry `N#CC(=C1Nc2ccccc2S1)c1ccnc(OCc2ccc(CN3CCOCC3)cc2)n1` .
0.0372 µM (active)

Respond only with Potency recorded for `O=C(O)C1=CO[C@@H](O[C@@H]2O[C@H](CO)[C@H](O)[C@H](O)[C@H]2O)[C@@H]2C(CO)=CC[C@H]12`
inactive

Note Potency for the compound shown: NCC1CCC(C(=O)O)CC1 (stereo unspecified)
inactive

Tell me its Potency given CCC(c1ccc(O)cc1)C(CC)c1ccc(O)cc1 (stereo unspecified) as the entry.
inactive

Determine from records and report Potency for `Cc1ccc(NC(=O)c2cccc(N(C)C)c2)cc1NC(=O)c1ccc(O)cc1`
inactive

// Input: `C[C@@H]1[C@H](C)CC[C@]2(C(=O)O)CC[C@]3(C)C(=CC[C@@H]4[C@@]5(C)CC[C@H](O)C(C)(C)[C@H]5CC[C@]43C)[C@@H]12` . Output its Potency only.
inactive

Give the measured Potency for `N=C1SC(=Cc2ccc(-c3ccc4c(c3)C(=O)NC4=O)o2)C(=O)N1c1ccc(Br)cc1`
inactive

Recall and state the measured Potency for N#CC(c1ccnc(NCCc2cccnc2)n1)c1nc2ccccc2s1 (stereo unspecified) .
4.69 µM (active)

Entry `O=C(Nc1ncc(SCCN2CCCC2)s1)[C@]1(c2ccc(S(=O)(=O)C3CC3)cc2)C[C@@H]1C1CCCCC1` needs its Potency filled in; supply it.
7.43 µM (active)

Provide one value: measured Potency of `Cc1nc(NC(=O)N2CCC[C@@H]2C(N)=O)sc1-c1csc(C(C)(C)C)n1`
0.833 µM (active)

Fill in Potency for record `COc1cc2nc(-c3cc(F)ccc3O)nc(N[C@@H]3CNC[C@@H]3C(C)(C)O)c2cc1OC`
1.87 µM (active)

Identify the reported Potency for the following entry. `Cc1ccc(NC(=O)c2ccc(CN3CCN(C)CC3)cc2)cc1Nc1nc(-c2cccnc2)cs1`
9.35 µM (active)

Name the recorded Potency of the item `CC[C@H](CC#N)OC(=O)N[C@@H](C)c1cccc(NC(=O)Nc2ccc(-c3cnco3)c(OC)c2)c1` in your answer.
18.7 µM (active)

Provide one value: measured Potency of `CC(=O)Nc1cccc(-n2c(=O)n(C3CC3)c(=O)c3c(Nc4ccc(I)cc4F)n(C)c(=O)c(C)c32)c1`
5.9 µM (active)

Report Potency, nothing else, for this compound: `COc1ccc2nc3cc(Cl)ccc3c(Nc3cc(CN4CCCC4)c(O)c(CN4CCCC4)c3)c2n1`
16.6 µM (active)

For the compound CCCCN(CCCC)CC(O)c1cc(Cl)cc2c1-c1ccc(Cl)cc1C2=Cc1ccc(Cl)cc1 (stereo unspecified) , give its measured Potency value.
inactive

Please report Potency for the following compound: `Cc1ccc2c(c1)C(=O)[C@]1(O)CCN(c3ccccc3)C1=N2`
inactive

Consider the compound `C[C@@]1(c2cc(-c3cncnc3)c(F)cc2F)CCSC(N)=N1` and give its recorded Potency.
1.48 µM (active)

Give the reported value of Potency for this record: `CC[C@H](C=C[C@@H](C)[C@H]1CC[C@H]2[C@@H]3CC=C4C[C@@H](O)CC[C@]4(C)[C@@H]3CC[C@]12C)C(C)C`
inactive

Given `CN(C)CCOc1ccc(-c2nc(-c3ccc4c(c3)CCC4=NO)c(-c3ccncc3)[nH]2)cc1` , respond with its Potency.
6.62 µM (active)
